- SYSTEM_TESTED: E. coli RelA (Escherichia coli, UniProt P0AG20)
- Construct: made in house
- Sequence (P0AG20 whole entry): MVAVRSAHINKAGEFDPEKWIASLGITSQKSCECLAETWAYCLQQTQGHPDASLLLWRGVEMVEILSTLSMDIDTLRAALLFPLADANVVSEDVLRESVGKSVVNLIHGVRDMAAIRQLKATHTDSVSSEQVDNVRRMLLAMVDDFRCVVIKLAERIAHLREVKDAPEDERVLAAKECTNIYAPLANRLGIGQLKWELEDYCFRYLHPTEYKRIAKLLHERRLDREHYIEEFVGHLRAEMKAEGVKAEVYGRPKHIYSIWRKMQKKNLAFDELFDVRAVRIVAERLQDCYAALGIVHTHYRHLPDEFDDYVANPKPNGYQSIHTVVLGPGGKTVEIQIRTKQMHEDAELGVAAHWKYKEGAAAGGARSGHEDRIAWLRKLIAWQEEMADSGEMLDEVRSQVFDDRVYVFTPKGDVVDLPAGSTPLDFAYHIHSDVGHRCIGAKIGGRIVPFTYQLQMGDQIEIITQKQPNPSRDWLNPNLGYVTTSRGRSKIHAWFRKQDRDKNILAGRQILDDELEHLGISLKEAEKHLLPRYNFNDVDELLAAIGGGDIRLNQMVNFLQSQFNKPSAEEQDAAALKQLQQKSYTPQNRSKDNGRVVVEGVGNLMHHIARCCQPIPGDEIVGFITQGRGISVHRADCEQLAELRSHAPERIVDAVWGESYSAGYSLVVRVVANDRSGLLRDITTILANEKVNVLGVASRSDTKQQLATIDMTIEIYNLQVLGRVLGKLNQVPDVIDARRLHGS
- PROCEDURE_TEXT: Inhibition of [3H]GDP to [3H]ppGpp conversion by E. coli RelA activated by vacant 70S ribosomes and 100 μM ppGpp
- Assay type: biochemical
- EXPERIMENTAL_PARAMETERS: 30 nM RelA, 0.5 μM vacant 70S, 100 μM ppGpp, 0.3 mM [3H]GDP, 1 mM ATP; read-out: IC50
- Method: For the initial characterization of compounds, we followed the inhibition of [^3H] GDP conversion to [^3H] ppGpp catalyzed by E. coli RelA in a simplified system in which RelA’s activity was induced by vacant 70S ribosomes and 100 μM of ppGpp[15]. […] Detailed description of experimental procedures can be found in Supplementary Text. […] Inhibition efficiency (IC50) was calculated using 4-parameter logistic model (Hill equation) as per Sebaugh[60]. […]
pIC50: −log10 of the molar value.

[
  {
    "COMPOUND": "CC(C)C(=O)Nc1nc2c(ncn2[C@H]2C[C@H](OC(=O)NCC(=O)NCC(=O)O)[C@@H](COC(=O)NCC(=O)NCC(=O)O)O2)c(=O)[nH]1 [Relacin, reference compound]",
    "pIC50": 3.08
  },
  {
    "COMPOUND": "CC(C)C(=O)Nc1nc2c(ncn2C2OC(COP(=O)(O)OCP(=O)(O)O)C(OP(=O)(O)OCP(=O)(O)O)C2O)c(=O)[nH]1 (stereo not drawn)",
    "pIC50": 4.00
  },
  {
    "COMPOUND": "Nc1nc2c(ncn2C2CCN(C(=O)P(=O)(O)O)CC2)c(=O)[nH]1",
    "pIC50": 3.92
  }
]
